Reported viability at 0.001 µg/mL values follow for various compounds
Tested on: MCF7
assayProtocol: Anticancer activity against wild-type human MCF7 cells assessed as cell viability at 0.001 ug/mL after 24 hrs by MTT assay relative to control
Assay type: functional
settings: MCF7, 24 h, read-out: Activity
parameterMeasured: viability at 0.001 µg/mL (%)

> print(dat)
                                  structure         parametermeasured  measuredvalue
1  COc1cc(/C=C/C(=N\NC(N)=O)C(=Cc2cn(-c3ccccc3)nc2-c2cccc([N+](=O)[O-])c2)C(/C=C/c2ccc(O)c(OC)c2)=N/NC(N)=O)ccc1O  viability at 0.001 µg/mL             89
2        O=Cc1cn(-c2ccccc2)nc1-c1ccc(Cl)cc1  viability at 0.001 µg/mL             98
3  COc1cc(/C=C/C(=O)C(=Cc2cn(-c3ccccc3)nc2-c2ccc(Cl)cc2)C(=O)/C=C/c2ccc(O)c(OC)c2)ccc1O  viability at 0.001 µg/mL             81
4           O=Cc1cn(-c2ccccc2)nc1-c1ccccc1O  viability at 0.001 µg/mL             97
5  O=Cc1cn(-c2ccccc2)nc1-c1cccc([N+](=O)[O-])c1  viability at 0.001 µg/mL             89
6  COc1cc(/C=C/C(=N\NC(N)=O)C(=Cc2cn(-c3ccccc3)nc2-c2ccc(Cl)cc2)C(/C=C/c2ccc(O)c(OC)c2)=N/NC(N)=O)ccc1O  viability at 0.001 µg/mL             81
7  O=Cc1cn(-c2ccccc2)nc1-c1ccc([N+](=O)[O-])cc1  viability at 0.001 µg/mL             97
8  COc1cc(/C=C/C(=O)C(=Cc2cn(-c3ccccc3)nc2-c2ccc([N+](=O)[O-])cc2)C(=O)/C=C/c2ccc(O)c(OC)c2)ccc1O  viability at 0.001 µg/mL             98
9  COc1cc(/C=C/C(=N\NC(N)=O)C(=Cc2cn(-c3ccccc3)nc2-c2ccccc2O)C(/C=C/c2ccc(O)c(OC)c2)=N/NC(N)=O)ccc1O  viability at 0.001 µg/mL             91

###

Reported viability at 0.001 µg/mL values follow for various molecules
Tested on: MCF7
assayProtocol: Anticancer activity against wild-type human MCF7 cells assessed as cell viability at 0.001 ug/mL after 24 hrs by MTT assay relative to control
Type: functional
settings: MCF7, 24 h, read-out: Activity
parameterMeasured: viability at 0.001 µg/mL (%)

> print(dat)
                                  structure         parametermeasured  readoutunits  measuredvalue
1  COc1cc(/C=C/C(=O)C(=Cc2cn(-c3ccccc3)nc2-c2cccc([N+](=O)[O-])c2)C(=O)/C=C/c2ccc(O)c(OC)c2)ccc1O  viability at 0.001 µg/mL             %             96
2  COc1cc(/C=C/C(=N\NC(N)=O)C(=Cc2cn(-c3ccccc3)nc2-c2ccc([N+](=O)[O-])cc2)C(/C=C/c2ccc(O)c(OC)c2)=N/NC(N)=O)ccc1O  viability at 0.001 µg/mL             %            105
3  COc1cc(/C=C/C(=O)C(=Cc2cn(-c3ccccc3)nc2-c2ccccc2O)C(=O)/C=C/c2ccc(O)c(OC)c2)ccc1O  viability at 0.001 µg/mL             %             97

###

assayProtocol: Hemolytic activity in rabbit RBC at 100 ug/mL after 3 hrs by colorimetric assay relative to control
Type: ADME, cell-based, Oryctolagus cuniculus, Erythrocyte
settings: rabbit red blood cells (RBC), read-out: Activity
Returns Met if the recorded hemolysis at 3 h, 100 ug/mL is greater than or equal to 20%, and Not met otherwise.

> print(dat)
                                  structure  assignedlabel
1  COc1cc(/C=C/C(=N\NC(N)=O)C(=Cc2cn(-c3ccccc3)nc2-c2ccc(Cl)cc2)C(/C=C/c2ccc(O)c(OC)c2)=N/NC(N)=O)ccc1O        Not met
2  COc1cc(/C=C/C(=O)C(=Cc2cn(-c3ccccc3)nc2-c2ccc([N+](=O)[O-])cc2)C(=O)/C=C/c2ccc(O)c(OC)c2)ccc1O        Not met
3  COc1cccc2c1C(=O)c1c(O)c3c(c(O)c1C2=O)C[C@@](O)(C(=O)CO)C[C@@H]3O[C@H]1C[C@H](N)[C@H](O)[C@H](C)O1            Met
4  COc1cc(/C=C/C(=N\NC(N)=O)C(=Cc2cn(-c3ccccc3)nc2-c2cccc([N+](=O)[O-])c2)C(/C=C/c2ccc(O)c(OC)c2)=N/NC(N)=O)ccc1O        Not met
5  O=Cc1cn(-c2ccccc2)nc1-c1cccc([N+](=O)[O-])c1        Not met

###

Tested on: DNA
assayProtocol: Binding affinity to calf thymus DNA by Benessi-Hilderbrand equation
Format: nucleic-acid assay
settings: Bos taurus
Reported Kb values follow for various molecules
parameterMeasured: Kb (×10³ /M)

> print(dat)
                                  structure  parametermeasured  readoutunits  measuredvalue
1  O=Cc1cn(-c2ccccc2)nc1-c1ccc([N+](=O)[O-])cc1                 Kb       ×10³ /M            1.9
2  O=Cc1cn(-c2ccccc2)nc1-c1cccc([N+](=O)[O-])c1                 Kb       ×10³ /M            2.5
3           O=Cc1cn(-c2ccccc2)nc1-c1ccccc1O                 Kb       ×10³ /M            1.4

###

System: DNA
assayProtocol: Binding affinity to calf thymus DNA by Benessi-Hilderbrand equation
Assay type: nucleic-acid assay
settings: Bos taurus
parameterMeasured: Kb

> print(dat)
                                  structure  measuredvalue
1  COc1cc(/C=C/C(=O)C(=Cc2cn(-c3ccccc3)nc2-c2ccc(Cl)cc2)C(=O)/C=C/c2ccc(O)c(OC)c2)ccc1O    7.8 ×10⁵ /M
2  COc1cc(/C=C/C(=N\NC(N)=O)C(=Cc2cn(-c3ccccc3)nc2-c2ccccc2O)C(/C=C/c2ccc(O)c(OC)c2)=N/NC(N)=O)ccc1O      3 ×10⁴ /M
3  COc1cc(/C=C/C(=N\NC(N)=O)C(=Cc2cn(-c3ccccc3)nc2-c2ccc(Cl)cc2)C(/C=C/c2ccc(O)c(OC)c2)=N/NC(N)=O)ccc1O    8.1 ×10⁵ /M

Source: ChEMBL document CHEMBL2396575
